system: NCI-H460; assay: Growth inhibition of human NCI-H460 cells after 48 hrs by SRB assay; assay type: functional; settings: NCI-H460, 48 h
EXPERIMENTAL ENDPOINT: log10 of GI50 (log10 of the value in nM)

COMPOUND | EXPERIMENTAL TARGET | log10 of GI50
COc1cc(/C2=C/CCCCc3c2ccc(OC)c3OC)cc(OC)c1OC | NCI-H460 | 2.60
COc1ccc(/C=C\c2cc(OC)c(OC)c(OC)c2)cc1OP(=O)(O)O [FOSBRETABULIN] | NCI-H460 | 0.45
COc1ccc2c(c1)CCCC/C=C\2c1cc(OC)c(OC)c(OC)c1 | NCI-H460 | 2.63
COc1ccc2c(c1O)CCCC/C=C\2c1cc(OC)c(OC)c(OC)c1 | NCI-H460 | 2.03
COc1cc(C2=CCc3c2ccc(OC)c3OP(=O)(O)O)cc(OC)c1OC | NCI-H460 | 3.18
COc1cc(C2=CCc3c2ccc(OC)c3OC)cc(OC)c1OC | NCI-H460 | 4.63
COc1ccc2c(c1O)CC=C2c1cc(OC)c(OC)c(OC)c1 | NCI-H460 | 2.59
COc1ccc2c(c1)CC=C2c1cc(OC)c(OC)c(OC)c1 | NCI-H460 | 3.60
COc1cc(/C2=C/CCCCc3c2ccc(OC)c3OP(=O)([O-])[O-])cc(OC)c1OC.[Na+].[Na+] | NCI-H460 | 1.41
